- tgt: D(2) dopamine receptor (Homo sapiens, UniProt P14416)
- Sequence (P14416 whole entry): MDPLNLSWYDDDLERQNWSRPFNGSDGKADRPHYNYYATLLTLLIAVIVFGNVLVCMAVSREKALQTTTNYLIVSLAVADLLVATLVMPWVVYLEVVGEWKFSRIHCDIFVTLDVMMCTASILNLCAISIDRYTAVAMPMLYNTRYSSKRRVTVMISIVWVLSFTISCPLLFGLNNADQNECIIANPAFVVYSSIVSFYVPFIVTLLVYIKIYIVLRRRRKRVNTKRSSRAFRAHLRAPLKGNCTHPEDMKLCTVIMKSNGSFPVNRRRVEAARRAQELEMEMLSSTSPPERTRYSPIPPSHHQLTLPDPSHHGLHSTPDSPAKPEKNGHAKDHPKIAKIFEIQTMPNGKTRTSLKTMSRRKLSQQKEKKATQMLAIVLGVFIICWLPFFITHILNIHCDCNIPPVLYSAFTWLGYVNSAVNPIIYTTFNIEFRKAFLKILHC
- test-method-notes: In vitro binding affinity at human Dopamine receptor D2 (long) by [3H]spiroperidol displacement.
endpoint-label: log10(Ki) (log10 of the value in µM)

INSERT INTO assay_data (compound, observed_result) VALUES
  ('COc1cccc2c1CCCC2NCCN1CCN(c2ccc(Cl)cc2)CC1.Cl.Cl (configuration not stated)', 0.50),
  ('COc1ccc2c(c1)C(=O)N(CCN1CCN(c3ccc(Cl)cc3)CC1)CC2', 0.60),
  ('COc1ccc2c(c1)C(NCCN1CCN(c3ccc(Cl)cc3)CC1)CCC2 (configuration not stated)', -0.58),
  ('COc1ccc2c(c1)C(CCCN1CCN(c3ccc(Cl)cc3)CC1)CCC2 (configuration not stated)', -0.01),
  ('COc1cccc2c1CCCC2CCCN1CCN(c2ccc(Cl)cc2)CC1 (configuration not stated)', 0.53),
  ('COc1cccc(CNCCN2CCN(c3ccc(Cl)cc3)CC2)c1', 0.70),
  ('COc1cccc(C(=O)CCCN2CCN(c3ccc(Cl)cc3)CC2)c1', 0.41),
  ('COc1cccc(CCCCN2CCN(c3ccc(Cl)cc3)CC2)c1', 0.44),
  ('COc1cccc(NC(=O)CCN2CCN(c3ccc(Cl)cc3)CC2)c1', -0.55);

* * *

- tgt: D(2) dopamine receptor (Homo sapiens, UniProt P14416)
- test-method-notes: In vitro binding affinity towards human Dopamine receptor D2L, using [3H]spiroperidol radioligand in Sf9 baculovirus expression.
endpoint-label: Ki (µM)

INSERT INTO results (chemical_smiles, tgt, output_unit, observed_result) VALUES
  ('COc1cccc2c1CCN(CCN1CCN(c3ccc(Cl)cc3)CC1)C2=O', 'D(2) dopamine receptor (Homo sapiens, UniProt P14416)', 'µM', 3.17);

* * *

- tgt: 5-hydroxytryptamine receptor 1A (Rattus norvegicus)
- Sequence (P19327 whole entry): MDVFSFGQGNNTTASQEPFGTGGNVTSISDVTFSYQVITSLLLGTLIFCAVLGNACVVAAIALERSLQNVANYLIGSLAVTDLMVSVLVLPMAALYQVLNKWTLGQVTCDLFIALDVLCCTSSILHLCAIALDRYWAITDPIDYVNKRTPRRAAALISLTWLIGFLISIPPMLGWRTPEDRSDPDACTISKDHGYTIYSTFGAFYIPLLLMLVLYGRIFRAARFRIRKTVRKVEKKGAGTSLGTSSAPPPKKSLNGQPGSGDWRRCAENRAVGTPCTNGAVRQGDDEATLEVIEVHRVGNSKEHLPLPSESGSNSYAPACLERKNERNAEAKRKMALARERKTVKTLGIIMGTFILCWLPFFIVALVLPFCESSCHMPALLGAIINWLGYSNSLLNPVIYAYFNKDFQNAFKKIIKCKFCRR
endpoint-label: log10 Ki (log10 of the value in nM)

INSERT INTO results (compound, observed_result) VALUES
  ('COc1cccc(C(=O)CCCN2CCN(c3ccc(Cl)cc3)CC2)c1', 2.26),
  ('COc1cccc(C(=O)CCCCN2CCN(c3ccc(Cl)cc3)CC2)c1', 1.57),
  ('COc1cccc2c1CCCC2NCCN1CCN(c2ccc(Cl)cc2)CC1.Cl.Cl (stereo not drawn)', 2.91),
  ('COc1cccc(CCCCN2CCN(c3ccc(Cl)cc3)CC2)c1', 2.71),
  ('COc1cccc(NC(=O)CCN2CCN(c3ccc(Cl)cc3)CC2)c1', 2.93);

* * *

- tgt: Adrenergic receptor alpha-1 (Rattus norvegicus, UniProt P15823+P23944+P43140)
- test-method-notes: In vitro binding affinity towards alpha-1 adrenergic receptor by using [3H]prazosin in rat brain cortex membranes.
- Assay type: cell membranes
endpoint-label: Ki

INSERT INTO measurements (molecule, tgt, endpoint_label, observed_result) VALUES
  ('COc1ccc2c(c1)C(=O)N(CCN1CCN(c3ccc(Cl)cc3)CC1)CC2', 'Adrenergic receptor alpha-1 (Rattus norvegicus, UniProt P15823+P23944+P43140)', 'Ki', '> 850 nM'),
  ('COc1cccc(CNCCN2CCN(c3ccc(Cl)cc3)CC2)c1', 'Adrenergic receptor alpha-1 (Rattus norvegicus, UniProt P15823+P23944+P43140)', 'Ki', '> 850 nM'),
  ('COc1cccc2c1CCN(CCN1CCN(c3ccc(Cl)cc3)CC1)C2=O', 'Adrenergic receptor alpha-1 (Rattus norvegicus, UniProt P15823+P23944+P43140)', 'Ki', '631 nM'),
  ('COc1ccc2c(c1)C(CCCN1CCN(c3ccc(Cl)cc3)CC1)CCC2 (stereo not drawn)', 'Adrenergic receptor alpha-1 (Rattus norvegicus, UniProt P15823+P23944+P43140)', 'Ki', '> 850 nM'),
  ('COc1cccc(NC(=O)CCN2CCN(c3ccc(Cl)cc3)CC2)c1', 'Adrenergic receptor alpha-1 (Rattus norvegicus, UniProt P15823+P23944+P43140)', 'Ki', '303 nM'),
  ('COc1cccc2c1CCCC2CCCN1CCN(c2ccc(Cl)cc2)CC1 (stereo not drawn)', 'Adrenergic receptor alpha-1 (Rattus norvegicus, UniProt P15823+P23944+P43140)', 'Ki', '> 850 nM'),
  ('COc1cccc(C(=O)CCCCCN2CCN(c3ccc(Cl)cc3)CC2)c1', 'Adrenergic receptor alpha-1 (Rattus norvegicus, UniProt P15823+P23944+P43140)', 'Ki', '678 nM'),
  ('COc1cccc(C(=O)N(C)CCN2CCN(c3ccc(Cl)cc3)CC2)c1', 'Adrenergic receptor alpha-1 (Rattus norvegicus, UniProt P15823+P23944+P43140)', 'Ki', '> 850 nM'),
  ('COc1cccc(C(=O)CCCCN2CCN(c3ccc(Cl)cc3)CC2)c1', 'Adrenergic receptor alpha-1 (Rattus norvegicus, UniProt P15823+P23944+P43140)', 'Ki', '146 nM'),
  ('COc1cccc(CCCCN2CCN(c3ccc(Cl)cc3)CC2)c1', 'Adrenergic receptor alpha-1 (Rattus norvegicus, UniProt P15823+P23944+P43140)', 'Ki', '> 850 nM'),
  ('COc1ccc2c(c1)C(NCCN1CCN(c3ccc(Cl)cc3)CC1)CCC2 (stereo not drawn)', 'Adrenergic receptor alpha-1 (Rattus norvegicus, UniProt P15823+P23944+P43140)', 'Ki', '> 850 nM'),
  ('COc1cccc2c1CCCC2NCCN1CCN(c2ccc(Cl)cc2)CC1.Cl.Cl (stereo not drawn)', 'Adrenergic receptor alpha-1 (Rattus norvegicus, UniProt P15823+P23944+P43140)', 'Ki', '> 850 nM'),
  ('COc1cccc(C(=O)CCCN2CCN(c3ccc(Cl)cc3)CC2)c1', 'Adrenergic receptor alpha-1 (Rattus norvegicus, UniProt P15823+P23944+P43140)', 'Ki', '908 nM');

* * *

- tgt: UniProtKB P21917
- Sequence (P21917 whole entry): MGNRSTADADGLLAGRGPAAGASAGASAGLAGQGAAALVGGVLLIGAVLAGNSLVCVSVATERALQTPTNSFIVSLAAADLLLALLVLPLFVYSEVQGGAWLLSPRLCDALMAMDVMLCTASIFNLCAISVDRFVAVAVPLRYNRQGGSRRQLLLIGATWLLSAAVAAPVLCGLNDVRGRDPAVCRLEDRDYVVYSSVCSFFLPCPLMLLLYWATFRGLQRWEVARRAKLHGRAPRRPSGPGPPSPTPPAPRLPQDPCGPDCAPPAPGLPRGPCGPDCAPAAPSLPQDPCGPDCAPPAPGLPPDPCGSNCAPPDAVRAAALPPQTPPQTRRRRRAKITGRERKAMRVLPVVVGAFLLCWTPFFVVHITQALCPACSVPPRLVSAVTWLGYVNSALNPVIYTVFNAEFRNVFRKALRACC
pKi: −log10 of the molar value.
Classify by measured pKi: y if it is equal to or exceeds 7, n if it is smaller.

INSERT INTO measurements (molecule, class_name) VALUES
  ('COc1cccc(C(=O)N(C)CCN2CCN(c3ccc(Cl)cc3)CC2)c1', 'n'),
  ('COc1ccc2c(c1)C(CCCN1CCN(c3ccc(Cl)cc3)CC1)CCC2 (centres undefined)', 'n'),
  ('COc1cccc(CNCCN2CCN(c3ccc(Cl)cc3)CC2)c1', 'y'),
  ('COc1ccc2c(c1)C(NCCN1CCN(c3ccc(Cl)cc3)CC1)CCC2 (centres undefined)', 'y'),
  ('COc1cccc2c1CCCC2CCCN1CCN(c2ccc(Cl)cc2)CC1 (centres undefined)', 'n'),
  ('COc1cccc2c1CCCC2NCCN1CCN(c2ccc(Cl)cc2)CC1.Cl.Cl (centres undefined)', 'y'),
  ('COc1cccc(CCCCN2CCN(c3ccc(Cl)cc3)CC2)c1', 'n'),
  ('COc1cccc2c1CCN(CCN1CCN(c3ccc(Cl)cc3)CC1)C2=O', 'y'),
  ('COc1cccc(C(=O)CCCCN2CCN(c3ccc(Cl)cc3)CC2)c1', 'y');

* * *

- tgt: Adrenergic receptor alpha-1 (Rattus norvegicus) (UniProt P15823+P23944+P43140)
- test-method-notes: Tested in vitro for % inhibition against alpha-1 adrenergic receptor
- Assay type: protein assay
- Design: concentration or dose not given beside the values
- setup-conditions: concentration not given here
endpoint-label: inhibition (%)

INSERT INTO results (compound, output_unit, observed_result) VALUES
  ('COc1cccc(CNCCN2CCN(c3ccc(Cl)cc3)CC2)c1', '%', 12),
  ('COc1cccc2c1CCCC2NCCN1CCN(c2ccc(Cl)cc2)CC1.Cl.Cl (stereo unspecified)', '%', 27),
  ('COc1ccc2c(c1)C(NCCN1CCN(c3ccc(Cl)cc3)CC1)CCC2 (stereo unspecified)', '%', 37),
  ('COc1ccc2c(c1)C(=O)N(CCN1CCN(c3ccc(Cl)cc3)CC1)CC2', '%', 33),
  ('COc1ccc2c(c1)C(CCCN1CCN(c3ccc(Cl)cc3)CC1)CCC2 (stereo unspecified)', '%', 19),
  ('COc1cccc2c1CCCC2CCCN1CCN(c2ccc(Cl)cc2)CC1 (stereo unspecified)', '%', 34);
